test.protocol: in vitro
Type: in vitro ADME
measurement.context: BALB/c, mouse, plasma
Numbered stars: 1 amine (or outer) side, 2 acyl side, 3 side chain; on linkers, the order of the positions; unused ones are H or OH. Square brackets hold non-standard residues; d marks the D form. Peptide text beside a SMILES is read from it. * marks the point of attachment. NHCH2(1-pyrenyl) = c1cc2ccc3ccc(CN*)c4ccc(c1)c2c34; PABC = O=C(OCc1ccc(N[*:1])cc1)[*:2]; Cit = NC(=O)NCCC[CH](N)C(=O)O; Glycolyl = O=C(CO)*; Sar = CNCC(=O)O
Listing: half-life at 100 µM of selected compounds
The reply should be a number in h, with the unit left off.

See these solved cases before continuing.
compound="CC(=O)NC(CC(=O)O)C(=O)NC(C(=O)NC(CCCNC(N)=O)C(=O)Nc1ccc(COC(=O)N(C)CC(=O)NCc2ccc3ccc4cccc5ccc2c3c45)cc1)C(C)C (stereo not drawn) [probe 1d] (Ac-DV[Cit][PABC][Sar]-{NHCH2(1-pyrenyl)}; configuration not given here)" assay_value=14
compound="CC(=O)NC(CO)C(=O)NC(C(=O)NC(CCCNC(N)=O)C(=O)Nc1ccc(COC(=O)N(C)CC(=O)NCc2ccc3ccc4cccc5ccc2c3c45)cc1)C(C)C (stereo not drawn) [probe 1b] (Ac-SV[Cit][PABC][Sar]-{NHCH2(1-pyrenyl)}; configuration not given here)" assay_value=3.1
compound="CC(=O)NC(CCC(=O)O)C(=O)NC(C(=O)NC(CCCNC(N)=O)C(=O)Nc1ccc(COC(=O)N(C)CC(=O)NCc2ccc3ccc4cccc5ccc2c3c45)cc1)C(C)C (stereo not drawn) [probe 1c] (Ac-EV[Cit][PABC][Sar]-{NHCH2(1-pyrenyl)}; configuration not given here)" assay_value=19.1
compound="CC(=O)NC(CCCCN)C(=O)NC(C(=O)NC(CCCNC(N)=O)C(=O)Nc1ccc(COC(=O)N(C)CC(=O)NCc2ccc3ccc4cccc5ccc2c3c45)cc1)C(C)C (stereo not drawn) [probe 1e] (Ac-KV[Cit][PABC][Sar]-{NHCH2(1-pyrenyl)}; configuration not given here)" assay_value=0.9
compound="CC(C)C(NC(=O)CNC(=O)CO)C(=O)NC(CCCNC(N)=O)C(=O)Nc1ccc(COC(=O)N(C)CC(=O)NCc2ccc3ccc4cccc5ccc2c3c45)cc1 (stereo not drawn) [probe 1f] (Glycolyl-GV[Cit][PABC][Sar]-{NHCH2(1-pyrenyl)}; configuration not given here)" assay_value=5

State the recorded half-life at 100 µM for this entry: CC(=O)NC(C(=O)NC(CCCNC(N)=O)C(=O)Nc1ccc(COC(=O)N(C)CC(=O)NCc2ccc3ccc4cccc5ccc2c3c45)cc1)C(C)C (stereo not drawn) 2.3
